assayTarget: UniProt:P43119
Sequence (P43119 whole entry): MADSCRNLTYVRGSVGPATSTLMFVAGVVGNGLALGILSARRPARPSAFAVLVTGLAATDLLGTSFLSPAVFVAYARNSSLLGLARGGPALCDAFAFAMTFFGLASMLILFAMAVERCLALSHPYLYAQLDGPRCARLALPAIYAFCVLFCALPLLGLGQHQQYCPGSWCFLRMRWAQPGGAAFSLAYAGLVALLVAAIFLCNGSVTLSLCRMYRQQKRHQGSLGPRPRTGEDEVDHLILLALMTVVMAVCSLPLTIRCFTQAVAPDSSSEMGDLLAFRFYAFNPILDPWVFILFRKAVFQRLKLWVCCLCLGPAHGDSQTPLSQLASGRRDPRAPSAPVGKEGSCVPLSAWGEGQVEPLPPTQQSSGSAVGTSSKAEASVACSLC
assayOverview: Affinity for Prostaglandin I2 receptor expressed in CHO cells
Assay type: cell-based
pIC50: −log10 of the molar value.
readoutName: pIC50

Use the examples below as a reference point.
# compound, assayTarget, measValue
records = [
    ("O=C(O)CCCCCC[C@@H]1[C@@H](CC[C@@H](O)CCc2ccccc2)[C@H](O)C[C@@H]1O", "UniProt:P43119", "< 5.00"),
    ("O=C(O)CCCCCC[C@@H]1[C@@H](CCC(O)CSc2ccccc2)[C@H](O)C[C@@H]1O (some centres undefined)", "UniProt:P43119", "< 5.00"),
    ("O=C(O)CCCCCC[C@@H]1[C@@H](CC[C@@H](O)COc2ccccc2)[C@H](O)C[C@@H]1O", "UniProt:P43119", "< 5.00"),
    ("CCCCC[C@H](O)/C=C/[C@@H]1[C@@H](C/C=C\\CCCC(=O)O)[C@@H](O)C[C@H]1O [DINOPROST]", "UniProt:P43119", "< 5.00"),
    ("Cc1cccc(SCC(O)CC[C@@H]2[C@@H](CCCCCCC(=O)O)[C@@H](O)C[C@H]2O)c1 (some centres undefined)", "UniProt:P43119", "< 5.00"),
    ("O=C(O)CCCCCC[C@@H]1[C@@H](CC[C@@H](O)COc2cccc(Cl)c2)[C@H](O)C[C@@H]1O", "UniProt:P43119", "< 5.00"),
    ("CCCCC[C@H](O)CC[C@@H]1[C@@H](CCCCCCC(=O)O)[C@@H](O)C[C@H]1O", "UniProt:P43119", "< 5.00"),
    ("O=C(O)CCCCCC[C@@H]1[C@@H](CCC(O)CSc2cccc(F)c2)[C@H](O)C[C@@H]1O (some centres undefined)", "UniProt:P43119", "< 5.00"),
]

Next:
For the compound O=C(O)CCCCCC[C@@H]1[C@@H](CCC(O)CSc2nccs2)[C@H](O)C[C@@H]1O (some centres undefined) , give its measured pIC50 value.
< 5.00

Just for reference, ChEMBL document CHEMBL1132967 is where these values come from.
